Measured values drawn from PubChem BioAssay (NCI) for this set.

Tested on: HS 578T breast
method-summary: NCI tumour cell line growth inhibition, 48 h
Recorded TGI, one value per entry.

Input: // query TGI value for entry `CCOC(=O)CC(=O)CSc1c(-c2ccccc2)c(=O)n(-c2ccccc2)c(=S)n1-c1ccccc1`
Output: > 100 µM

Input: // query TGI value for entry `O=C1N=C(Nc2nc(-c3csc(NC4=NC(=O)/C(=C\c5ccc(Cl)cc5)S4)n3)cs2)S/C1=C/c1ccc(Cl)cc1`
Output: > 50 µM

###

Test system: HL-60(TB) leukemia
method-summary: NCI tumour cell line growth inhibition, 48 h; in the data active means GI50 below about 0.43 µM; inactive means the rest
Mark one answer only. Choices: Y for active, N for inactive

Input: Could you please tell me the result logged for `OCc1ccc(N(Cc2ccc(F)cc2)CC2CCC2)cc1Cl` in this assay?
Output: N

Input: Could you please tell me the result logged for `C[C@H](c1ccccc1)N(CCC(=O)O)C(=O)CCN(C(=O)CCN(C(=O)CCN[C@H](C)c1ccccc1)[C@H](C)c1ccccc1)[C@H](C)c1ccccc1` in this assay?
Output: N

Input: Could you please tell me the result logged for `Cc1cc2c(cc1Cl)N1C(=O)NS(=O)(=O)N=C1NS2(=O)=O` in this assay?
Output: N

Input: Could you please tell me the result logged for `N=C(N)c1ccc(-c2ccc(-c3ccc(Cl)c(Cl)c3)o2)cc1` in this assay?
Output: N

Input: Could you please tell me the result logged for Fc1ccc(C2C3CCOc4c(ccc5ccccc45)C3=NN2c2ccccc2)cc1 (stereo not drawn) in this assay?
Output: N

Input: Could you please tell me the result logged for `COc1ccc(-c2nc3sccn3c2-c2ccnc(NCCCNS(=O)(=O)c3ccc(F)cc3)n2)cc1` in this assay?
Output: N

Input: Could you please tell me the result logged for `Cc1[nH]n(-c2cccc(Cl)c2)c(=O)c1/C=C1\C=c2ccccc2=CC1=O` in this assay?
Output: N

Input: Could you please tell me the result logged for `FC(F)(F)c1ccc(NCc2nc3ccccc3[nH]2)cc1` in this assay?
Output: N

Input: Could you please tell me the result logged for `O=C(c1ccco1)c1c(C(F)(F)F)n([O-])c2ccc(F)cc2[n+]1=O` in this assay?
Output: Y

Input: Could you please tell me the result logged for `CNCCNc1nc2ccccc2c2c(=O)c3cccc(C)c3sc12` in this assay?
Output: N

Input: Could you please tell me the result logged for `C#Cc1ccc(-n2c(/C=C/c3ccc4ccccc4c3)nc3ncccc3c2=O)cc1` in this assay?
Output: N

Input: Could you please tell me the result logged for `O=C(O)c1cn(C2CC2)c2cc(N3CCN(Cc4ccc5ccccc5c4O)CC3)c(F)cc2c1=O` in this assay?
Output: N

Input: Could you please tell me the result logged for `O=C1NC(=O)C(c2c[nH]c3ccccc23)=C1c1ccccc1` in this assay?
Output: N

###

Tested on: NCI/ADR-RES ovarian
method-summary: NCI tumour cell line growth inhibition, 48 h
Recorded TGI, one value per entry.
Give the number; µM is assumed, so skip it.

molecule	parameter	observed-result
N=C(N)SCc1cccc([N+](=O)[O-])c1	TGI	48.3
N[C@@H](CSSC[C@H](N)C(=O)N1CCn2cc(-c3ccccc3)nc2[C@@H]1CC1CCCCC1)C(=O)N1CCn2cc(-c3ccccc3)nc2[C@@H]1CC1CCCCC1	TGI	9.32

Now for the molecule whose TGI we want.
Input: // query TGI value for entry OCCCCCCCCCCCOc1ccc(C2OCC3(CC=CCC3)CO2)cc1 (stereo not given)
Output: 36.3

###

System: 786-0 renal
method-summary: NCI tumour cell line growth inhibition, 48 h
*1 amine or outer side, *2 acyl side, *3 side chain or, on linkers, in order; H or OH if unused. Where a SMILES comes first, the peptide text is derived from it. The star is where a group is joined. γGlu = O=C(O)[CH](CCC(=O)[*:2])N[*:1]; NHOH = ON*
parameter: TGI

molecule	study-target	observed-result
CCCCCCCCCCCC(=O)OC(COC(N)=O)COc1ccc(Cl)cc1 (stereo not given)	786-0 renal	> 100 µM
CCOC(=O)CNC(=O)C(CCC(=O)NO)NC(=O)CCC(N)C(=O)O (stereo not given) (γGlu-Glu(NHOH)-Gly-OEt; configuration not given here)	786-0 renal	> 100 µM
Nc1nc2ncn(CC(O)COC(=O)c3ccccc3)c2c(=O)[nH]1 (stereo not given)	786-0 renal	> 100 µM
O=C(CSc1nc2ccc(I)cc2c(=O)n1Cc1ccccc1)NN1C(=O)c2ccccc2C1=O	786-0 renal	> 100 µM
C=C1C(=O)C2(C)OC2(C)C1C(=O)O (stereo not given)	786-0 renal	> 100 µM
Oc1ccc(-c2nc3cc(F)ccc3s2)cc1	786-0 renal	92.6 µM

Input: Value wanted: TGI (786-0 renal) of entry O=C1CSC(c2ccccc2O)N1c1nc2cc3sc(N4C(=O)CSC4c4ccccc4O)nc3cc2s1 (stereo not given)
Output: > 100 µM

Input: Value wanted: TGI (786-0 renal) of entry `CCn1c(O)c(C=Nc2ccccc2)s/c1=N/Nc1nc(-c2ccc(O)c(O)c2)cs1`
Output: > 100 µM

Input: Value wanted: TGI (786-0 renal) of entry `CC1(C)OC(=O)C(=Cc2ccc([N+](=O)[O-])s2)C(=O)O1`
Output: 32.2 µM

Input: Value wanted: TGI (786-0 renal) of entry `Cc1ccc2nc3c(C)cc(=O)cc-3sc2c1`
Output: 35.4 µM

###

Tested on: BT-549 breast
method-summary: NCI tumour cell line growth inhibition, 48 h; in the data active = GI50 below about 0.43 µM; inactive = the rest
Mark one answer only. Choices: active, inactive

compound	study-target	cat
Cc1cc(N)cc(C)c1-c1c(Br)cc(N)cc1Br	BT-549 breast	inactive
CC1COCCN1CC#CCOC(=O)c1cc2ccccc2oc1=O (centres undefined)	BT-549 breast	inactive
Fc1ccc(-c2nn3c(COc4ccc(Cl)cc4Cl)nnc3s2)cc1Oc1ccccc1	BT-549 breast	inactive
CCc1ccc([O-])c(C=NCCCN(C)CCCN=Cc2cc(C)ccc2[O-])c1.[Co+3].[N-]=[N+]=[N-]	BT-549 breast	inactive
CCN(CCO)CCCOc1ccc2c(Nc3cc(CC(=O)Nc4cccc(F)c4)[nH]n3)ncnc2c1	BT-549 breast	inactive
OCc1ccc(N(Cc2ccc(F)cc2)CC2CCC2)cc1Cl	BT-549 breast	inactive
C[C@H](c1ccccc1)N(CCC(=O)O)C(=O)CCN(C(=O)CCN(C(=O)CCN[C@H](C)c1ccccc1)[C@H](C)c1ccccc1)[C@H](C)c1ccccc1	BT-549 breast	inactive
O=C1NC(=N[C@H](CO)c2ccccc2)S/C1=C\c1ccc2ncccc2c1	BT-549 breast	inactive

# next compound below
Input: Could you please tell me the result logged for CCN1C(=O)N(CC)C2C1NN=c1s/c(=C\c3ccc(OC)cc3)c(=O)n12 (centres undefined) in this assay?
Output: active

###

System: OVCAR-4 ovarian
method-summary: NCI tumour cell line growth inhibition, 48 h
*1 amine or outer side, *2 acyl side, *3 side chain or, on linkers, in order; H or OH if unused. Where a SMILES comes first, the peptide text is derived from it. [ ]: non-standard residue; d: D form. ξ: configuration not given here. X22 = O=C(C(CC(O)CO)O[*:1])[*:2]; Ile(3ξ) = CCC(C)[C@H](N)C(=O)O; NMeV = CN[C@H](C(=O)O)C(C)C; NMeA = CN[C@@H](C)C(=O)O; βAla = NCCC(=O)O
parameter: TGI

// below: answered molecules
molecule	TGI
CCOC(=O)c1cc(-c2ccccc2)[nH]c1N/N=C/c1c(Cl)cccc1Cl	> 100 µM
CCC(C)[C@@H]1NC(=O)[C@@H]2CCCN2C(=O)C(CC(O)CO)OC(=O)CCNC(=O)[C@H](C)N(C)C(=O)[C@H](C(C)C)N(C)C1=O (some centres undefined) (cyclo([Ile(3ξ)][NMeV][NMeA][βAla][X22]P))	> 100 µM
C=C1CC(C)(COc2ccc3c(C)cc(=O)oc3c2)OC1=O (centres undefined)	9.06 µM
CC(C)COC(c1ccc2c(c1)OCO2)C(C)Br (centres undefined)	> 100 µM
Cc1ccc2nc3c(C)cc(=O)cc-3sc2c1	33.6 µM
CC1COCCN1CC#CCOC(=O)c1cc2ccccc2oc1=O (centres undefined)	> 100 µM

Input: // query TGI value for entry `O=C(Nc1ncc([N+](=O)[O-])s1)c1ccccc1O`
Output: > 100 µM

Input: // query TGI value for entry CCOC(=O)C(NC(=O)c1ccccc1)(Nc1ccc(S(=O)(=O)Nc2cc(C)nc(C)n2)cc1)C(F)(F)F (centres undefined)
Output: > 100 µM

Input: // query TGI value for entry `COc1cc2c(cc1OC)C(=O)/C(=C/c1cc(Cl)cc(Cl)c1)C2`
Output: 98.1 µM

###

System: SF-295 CNS
method-summary: NCI tumour cell line growth inhibition, 48 h
*1 amine or outer side, *2 acyl side, *3 side chain or, on linkers, in order; H or OH if unused. Where a SMILES comes first, the peptide text is derived from it. The star is where a group is joined. γGlu = O=C(O)[CH](CCC(=O)[*:2])N[*:1]; NHOH = ON*
Recorded TGI, one value per entry.

Input: // query TGI value for entry COc1cc(NC(C)CCCN2C(=O)c3ccccc3C2=O)c2ncccc2c1OC (stereo not given)
Output: 86.5 µM

Input: // query TGI value for entry `N#Cc1c(N)c(C#N)c2c(c1-c1ccc(Cl)cc1)COc1ccc(F)cc1-2`
Output: > 50 µM

Input: // query TGI value for entry N#CC1=C(N)OC(c2cccc([N+](=O)[O-])c2)C1(C#N)C#N (stereo not given)
Output: 73.2 µM

Input: // query TGI value for entry C=C1CC(C)(COc2ccc3c(C)cc(=O)oc3c2)OC1=O (stereo not given)
Output: 16.3 µM

Input: // query TGI value for entry COC(=O)N/N=C(/c1nc2ccc([N+](=O)[O-])cc2[nH]c1=O)C(O)c1ccc(OC)c(OC)c1 (stereo not given)
Output: > 100 µM

Input: // query TGI value for entry COC(=O)C1(C)CCCC2(C)c3cc(OC)ccc3C(=O)C(Br)C12 (stereo not given)
Output: > 10 µM

Input: // query TGI value for entry `O=C1N=C(Nc2nc(-c3csc(NC4=NC(=O)/C(=C\c5ccc(Cl)cc5)S4)n3)cs2)S/C1=C/c1ccc(Cl)cc1`
Output: > 50 µM

Input: // query TGI value for entry `NCCNCCNc1ccc(NCCNCCN)c2c1C(=O)c1c(O)ccc(O)c1C2=O`
Output: > 100 µM

Input: // query TGI value for entry `OCc1ccc(N(Cc2ccc(F)cc2)CC2CCC2)cc1Cl`
Output: 17.5 µM

Input: // query TGI value for entry CCOC(=O)CNC(=O)C(CCC(=O)NO)NC(=O)CCC(N)C(=O)O (stereo not given) (γGlu-Glu(NHOH)-Gly-OEt; configuration not given here)
Output: > 100 µM

Input: // query TGI value for entry Cc1ccc([N+](=O)[O-])cc1S(=O)(=O)Nc1ccc(C2=NOC(c3ccccc3O)C2)cc1 (stereo not given)
Output: > 100 µM

Input: // query TGI value for entry c1ccc2c(c1)N=C(c1ccc3ccccc3c1)CC(c1cccc3ccccc13)S2 (stereo not given)
Output: > 100 µM

Input: // query TGI value for entry `Oc1cccc(-c2nc(-c3ccccc3)[nH]c2-c2ccncc2)c1`
Output: > 25 µM

Input: // query TGI value for entry CCCCc1ccc(Nc2nc(Cl)c3ncn(C4CC(Oc5ccc(C)cc5)C(COc5ccc(C)cc5)O4)c3n2)cc1 (stereo not given)
Output: > 100 µM

Input: // query TGI value for entry CCCCCCCCCCCC(=O)OC(COC(N)=O)COc1ccc(Cl)cc1 (stereo not given)
Output: 40 µM

Input: // query TGI value for entry `N=C(N)SCc1cccc([N+](=O)[O-])c1`
Output: > 100 µM

Input: // query TGI value for entry `O=c1c2ccccc2nc2sc(/N=C/C=C/c3ccccc3)nn12`
Output: > 100 µM
